tested_target: GLP-1 receptor (GLP-1R), primary cAMP assay (human, UniProt P43220 24-463)
method: cell-based or functional assay
Starred links: 1 amine or outer side, 2 acyl side, 3 side chain; linkers in the order of their positions; H or OH if unused. Non-standard residues stand in square brackets, D forms with d. Groups on a side chain read outwards from the residue. Primed or numbered codes have the meaning given here. No end group written: not given here. *: point of attachment. γGlu = O=C(O)[C@H](CCC(=O)[*:2])N[*:1]; Palmitoyl = CCCCCCCCCCCCCCCC(=O)*; αMeF = C[C@](N)(Cc1ccccc1)C(=O)O; Myristoyl = CCCCCCCCCCCCCC(=O)*; αMeK = C[C@](N)(CCCCN)C(=O)O; Lauroyl = CCCCCCCCCCCC(=O)*; αMeS = C[C@](N)(CO)C(=O)O; Nle = CCCC[C@H](N)C(=O)O; PEG2′ = not defined here; Aib = CC(C)(N)C(=O)O
Kindly state Primary assay EC50 (cAMP), n1 for each of the entries shown.
Report only the number, with the unit pM understood.

// fetch Primary assay EC50 (cAMP), n1 given entry H[Aib]EGTFTSDVSK([PEG2′-PEG2′-γGlu-Lauroyl])YLEGEAAEEFIK([PEG2′-PEG2′-γGlu-Lauroyl])FVVEGG-NH2 [SEQ ID NO: 238] 8.75

Identify Primary assay EC50 (cAMP), n1 associated with the binder H[Aib]EGS[αMeF]TSDV[αMeS]SYK([PEG2′-PEG2′-γGlu-Lauroyl])EGEAA[αMeK]EFIK([PEG2′-PEG2′-γGlu-Lauroyl])WVVEGG-NH2 [SEQ ID NO: 268] 4.46

Quickly give me recorded Primary assay EC50 (cAMP), n1 for H[Aib]EGTFTSDVSK([PEG2′-PEG2′-γGlu-Lauroyl])FLEGEAAEEFIK([PEG2′-PEG2′-γGlu-Lauroyl])FVVEGG-NH2 [SEQ ID NO: 239] 6.3

Look up Primary assay EC50 (cAMP), n1 of H[Aib]EGS[αMeF]TSDV[αMeS]SK([PEG2′-PEG2′-γGlu-Lauroyl])LEGEAA[αMeK]E[Nle]IAK([PEG2′-PEG2′-γGlu-Lauroyl])VVEGG-NH2 [SEQ ID NO: 407] and report it. 1.96

Identify measured Primary assay EC50 (cAMP), n1 associated with H[Aib]EGS[αMeF]TSDK([PEG2′-PEG2′-γGlu-Palmitoyl])SSYLEGEAA[αMeK]EFIAK([PEG2′-PEG2′-γGlu-Palmitoyl])VVEGG-NH2 [SEQ ID NO: 260] 334

Please supply the value of reported Primary assay EC50 (cAMP), n1 for the item H[Aib]EGS[αMeF]TSDK([PEG2′-PEG2′-γGlu-Lauroyl])SSYLEGEAA[αMeK]EFIAWK([PEG2′-PEG2′-γGlu-Lauroyl])VEGG-NH2 [SEQ ID NO: 258] 59.6

Using the record for H[Aib]EGS[αMeF]TSDV[αMeS]SK([PEG2′-PEG2′-γGlu-Myristoyl])LEGEAA[αMeK]E[αMeF]IAK([PEG2′-PEG2′-γGlu-Myristoyl])VVEGG-NH2 [SEQ ID NO: 408] , state its measured Primary assay EC50 (cAMP), n1. 9.96

State its Primary assay EC50 (cAMP), n1: H[Aib]EGS[αMeF]TSDVSK([PEG2′-PEG2′-γGlu-Lauroyl])YLEGEAA[αMeK]EFIAK([PEG2′-PEG2′-γGlu-Lauroyl])VVEGG-NH2 [SEQ ID NO: 252] 2.88

These data points were gathered from patent US20200079833A1.
